Data provenance is ChEMBL document CHEMBL4420066.

Species on record: Homo sapiens
assay procedure: Inhibition of His-tagged recombinant human SET1 protein (1 to 290 amino acids) expressed in Escherichia coli interaction with N-terminal GST-tagged recombinant human PP2A-C (1 to 309 amino acids) assessed as minimal concentration causing disruption of SET-PP2Ac binding by SPR assay
Here the recorded MEC is given for each entry.

Requested read-out: MEC. Entry: FS(F)(F)(F)(F)c1ccc(Nc2nc3ccccc3nc2Nc2ccc(S(F)(F)(F)(F)F)cc2)cc1 50 nM

New cases:
Requested read-out: MEC. Entry: Clc1nc2ccccc2nc1Nc1ccccc1 > 200 nM

Requested read-out: MEC. Entry: O=[N+]([O-])c1ccc2nc(Nc3cccc(C(F)(F)F)c3)c(Nc3cccc(C(F)(F)F)c3)nc2c1 > 200 nM

Requested read-out: MEC. Entry: FC(F)(F)c1cc(Nc2nc3ccccc3nc2Cl)cc(C(F)(F)F)c1 > 200 nM

Requested read-out: MEC. Entry: COc1cccc(Nc2nc3ccc([N+](=O)[O-])cc3nc2Nc2cccc(OC)c2)c1 > 200 nM

Requested read-out: MEC. Entry: C#Cc1cccc(Nc2nc3ccc([N+](=O)[O-])cc3nc2Nc2cccc(C#C)c2)c1 50 to 100 nM

Requested read-out: MEC. Entry: Oc1ccc(Nc2nc3ccccc3nc2Nc2ccc(O)cc2)cc1 < 100 nM

Requested read-out: MEC. Entry: FS(F)(F)(F)(F)c1ccc(Nc2nc3ccccc3nc2Cl)cc1 > 200 nM

Requested read-out: MEC. Entry: Nc1ccc2nc(Nc3ccc(C(F)(F)F)cc3)c(Nc3ccc(C(F)(F)F)cc3)nc2c1 > 200 nM

Requested read-out: MEC. Entry: Clc1cccc(Nc2nc3ccccc3nc2Cl)c1 > 200 nM

###

Species on record: Homo sapiens
assay procedure: Inhibition of His-tagged recombinant human SET1 protein (1 to 290 amino acids) expressed in Escherichia coli interaction with N-terminal GST-tagged recombinant human PP2A-C (1 to 309 amino acids) assessed as minimal concentration causing disruption of SET-PP2Ac binding by SPR assay
readout label: MEC

Please review the following examples before continuing.
Requested read-out: MEC. Entry: Clc1cc(Cl)cc(Nc2nc3ccccc3nc2Cl)c1 100 to 200 nM

Requested read-out: MEC. Entry: O=[N+]([O-])c1ccc2nc(Nc3cccc(Br)c3)c(Nc3cccc(Br)c3)nc2c1 > 200 nM

Requested read-out: MEC. Entry: Clc1nc2ccccc2nc1NCc1ccccc1 > 200 nM

Requested read-out: MEC. Entry: FC(F)(F)c1cc(Nc2nc3ccccc3nc2Nc2ccc(Cl)c(C(F)(F)F)c2)ccc1Cl < 100 nM

Requested read-out: MEC. Entry: C#Cc1cccc(Nc2nc3ccccc3nc2Nc2cccc(C#C)c2)c1 100 to 200 nM

Requested read-out: MEC. Entry: C#Cc1cccc(Nc2nc3cc([N+](=O)[O-])ccc3nc2Nc2ccc(OC)cc2)c1 100 to 200 nM

Requested read-out: MEC. Entry: FC(F)(F)Oc1ccc(Nc2nc3ccccc3nc2Cl)cc1 > 200 nM

Requested read-out: MEC. Entry: FC(F)(F)Oc1ccc(Nc2nc3ccccc3nc2Nc2ccc(OC(F)(F)F)cc2)cc1 < 100 nM

As a next step, examine the compound that follows.
Requested read-out: MEC. Entry: O=[N+]([O-])c1cccc(Nc2nc3ccccc3nc2Cl)c1 > 200 nM
